Tested on: SR leukemia
Assay: NCI tumour cell line growth inhibition, 48 h
Recorded TGI by entry

Query TGI on SR leukemia for CCOC(=O)C1=C(OC(OCC)C([Se]c2ccccc2)C(C)C)CCC1 (centres undefined) 15.4 µM

Query TGI on SR leukemia for `Cc1cccc(C)c1NC(=O)CCC(=O)NC(N)=NC#N` > 100 µM

Query TGI on SR leukemia for C=C(Cl)/C(=C\Cl)CCC(Cl)C(C)C (centres undefined) (tested in a mixture with another compound) > 100 µM

Query TGI on SR leukemia for ICC1CCCO1 (centres undefined) > 100 µM

Query TGI on SR leukemia for `CC1(C)CC[C@]2(C(=O)O)CC[C@]3(C)C(=CCC4=C5C[C@H](O)[C@H](O)[C@@](C)(CO)[C@@]5(C)CC[C@]43C)[C@@H]2C1` > 100 µM

Continuing:
Query TGI on SR leukemia for CCCCCCCCOC(=O)C12Oc3ccc(-c4ccc5c(c4O)C(O)=C4C(=O)CC(C)C(O)C4(C(=O)OCCCCCCCC)O5)c(O)c3C(O)=C1C(=O)CC(C)C2O (centres undefined) 20.3 µM

Query TGI on SR leukemia for `CC1(C)OCC(CO)(CO)CO1` > 100 µM

Query TGI on SR leukemia for `CN1CCN(CCCNC(=O)c2c3c(n4ccccc24)C(=O)c2ncccc2C3=O)CC1` > 26.2 µM

Query TGI on SR leukemia for `COC(=O)[C@@H]1C[C@@H](O)CN1C(=O)c1ccc([N+](=O)[O-])cc1[N+](=O)[O-]` > 100 µM
